system: 126254-015-R-J1-PDC complex spheroid growth, % test/control; test: Anticancer human tumor 126254-015-R-J1-PDC patient-derived soft tissue sarcoma cell line growth inhibition [Asc]; settings: second compound 0.1 µM; first compound 0.316 µM; active compounds read low;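 also: spheroids exposed to compound for seven days; 100% = DMSO vehicle control wells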
measurement kind: viability, T/C (%)
Answers are plain numbers, in %.

- compound: "C=CC(=O)N1CCN(c2nc(=O)n(-c3c(C)ccnc3C(C)C)c3nc(-c4c(O)cccc4F)c(F)cc23)C(C)C1 (stereo not drawn) + CNC(C)C(=O)NC1CN(S(=O)(=O)c2cccc(S(=O)(=O)N3CCC4CCC(C(=O)NC(c5ccccc5)c5ccccc5)N4C(=O)C(NC(=O)C(C)NC)C3)c2)CCC2CCC(C(=O)NC(c3ccccc3)c3ccccc3)N2C1=O"
  value reported: 81.5
- compound: "CCN1CCN(Cc2ccc(Nc3ncc(F)c(-c4cc(F)c5nc(C)n(C(C)C)c5c4)n3)nc2)CC1 + Cc1c(S(C)(=O)=O)c(-c2cc(F)cc(N3CCN(c4ccc(NS(=O)(=O)c5ccc(NC(CCN6CCC(C(=O)OCCCP(=O)(O)O)CC6)CSc6ccccc6)c(S(=O)(=O)C(F)(F)F)c5)cc4)CC3)c2)c(-c2ccc(Cl)cc2)n1C(C)C"
  value reported: 110
- compound: "C=C(F)C(=O)N1CCN(c2nc(OCC3CCCN3C)nc3c2CCN(c2cccc4cccc(Cl)c24)C3)CC1CC#N (stereo not drawn) + CNC(C)C(=O)NC1CN(S(=O)(=O)c2cccc(S(=O)(=O)N3CCC4CCC(C(=O)NC(c5ccccc5)c5ccccc5)N4C(=O)C(NC(=O)C(C)NC)C3)c2)CCC2CCC(C(=O)NC(c3ccccc3)c3ccccc3)N2C1=O"
  value reported: 64.6
- compound: "C=C(F)C(=O)N1CCN(c2nc(OCC3CCCN3C)nc3c2CCN(c2cccc4cccc(Cl)c24)C3)CC1CC#N (stereo not drawn) + Cc1c(S(C)(=O)=O)c(-c2cc(F)cc(N3CCN(c4ccc(NS(=O)(=O)c5ccc(NC(CCN6CCC(C(=O)OCCCP(=O)(O)O)CC6)CSc6ccccc6)c(S(=O)(=O)C(F)(F)F)c5)cc4)CC3)c2)c(-c2ccc(Cl)cc2)n1C(C)C"
  value reported: 89.6
- compound: "CNC(C)C(=O)NC1CN(S(=O)(=O)c2cccc(S(=O)(=O)N3CCC4CCC(C(=O)NC(c5ccccc5)c5ccccc5)N4C(=O)C(NC(=O)C(C)NC)C3)c2)CCC2CCC(C(=O)NC(c3ccccc3)c3ccccc3)N2C1=O (stereo not drawn) + Cc1c(S(C)(=O)=O)c(-c2cc(F)cc(N3CCN(c4ccc(NS(=O)(=O)c5ccc(NC(CCN6CCC(C(=O)OCCCP(=O)(O)O)CC6)CSc6ccccc6)c(S(=O)(=O)C(F)(F)F)c5)cc4)CC3)c2)c(-c2ccc(Cl)cc2)n1C(C)C"
  value reported: 56.2

Dear colleague, could you please provide viability, T/C for the compounds listed below?
1. C=CC(=O)N1CCN(c2nc(=O)n(-c3c(C)ccnc3C(C)C)c3nc(-c4c(O)cccc4F)c(F)cc23)C(C)C1 (stereo not drawn) + Cc1c(S(C)(=O)=O)c(-c2cc(F)cc(N3CCN(c4ccc(NS(=O)(=O)c5ccc(NC(CCN6CCC(C(=O)OCCCP(=O)(O)O)CC6)CSc6ccccc6)c(S(=O)(=O)C(F)(F)F)c5)cc4)CC3)c2)c(-c2ccc(Cl)cc2)n1C(C)C
2. COc1c(OCCCN2CCOCC2)ccc2c3n(c(=NC(=O)c4cnc(N)nc4)nc12)CCN3 + Cc1c(S(C)(=O)=O)c(-c2cc(F)cc(N3CCN(c4ccc(NS(=O)(=O)c5ccc(NC(CCN6CCC(C(=O)OCCCP(=O)(O)O)CC6)CSc6ccccc6)c(S(=O)(=O)C(F)(F)F)c5)cc4)CC3)c2)c(-c2ccc(Cl)cc2)n1C(C)C
3. COc1c(OCCCN2CCOCC2)ccc2c3n(c(=NC(=O)c4cnc(N)nc4)nc12)CCN3 + CNC(C)C(=O)NC1CN(S(=O)(=O)c2cccc(S(=O)(=O)N3CCC4CCC(C(=O)NC(c5ccccc5)c5ccccc5)N4C(=O)C(NC(=O)C(C)NC)C3)c2)CCC2CCC(C(=O)NC(c3ccccc3)c3ccccc3)N2C1=O

Reply:
95.8
16
17.5
